The values you see were collected from PubChem BioAssay AID463203.

tested_on: Glycogen synthase kinase-3 alpha (Homo sapiens) (UniProt P49840)
Sequence (P49840 whole entry, looked up): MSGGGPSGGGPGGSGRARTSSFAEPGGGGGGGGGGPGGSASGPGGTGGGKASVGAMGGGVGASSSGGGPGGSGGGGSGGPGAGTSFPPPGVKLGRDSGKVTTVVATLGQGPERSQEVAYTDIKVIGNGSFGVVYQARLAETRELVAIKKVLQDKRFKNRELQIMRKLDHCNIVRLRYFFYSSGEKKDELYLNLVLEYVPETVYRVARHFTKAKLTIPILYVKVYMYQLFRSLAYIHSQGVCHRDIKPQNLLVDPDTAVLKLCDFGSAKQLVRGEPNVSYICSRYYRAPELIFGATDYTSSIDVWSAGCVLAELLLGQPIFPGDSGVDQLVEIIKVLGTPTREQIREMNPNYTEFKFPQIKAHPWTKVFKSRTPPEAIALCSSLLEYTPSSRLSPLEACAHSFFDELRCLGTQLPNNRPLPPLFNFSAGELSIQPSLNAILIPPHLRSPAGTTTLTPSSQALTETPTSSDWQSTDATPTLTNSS
test_protocol: concentration-response blocking of human GSK3A – biochemical, luminescence, cell-free homogeneous, retest, dose response (AID 463203)
condition_notes: GSK-3 alpha enzyme, ADP-Glo luminescence, 60 min
Calls of active or inactive are those of the source.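 How the source made its calls: active means more than half of replicate measurements showing over 20% loss of kinase signal relative to plate controls; inconclusive means some but at most half of replicates over 20% loss; inactive means no replicate over 20% signal loss.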
Pick from active, inactive when you respond.

Identify the outcome logged in this assay for the compound shown: CCSc1nc2sc3c(c2c(=O)n1CC)CC(C)(C)OC3 inactive

Please state the recorded outcome for this compound: Cc1ccsc1C1C2=C(CC(C)(C)CC2=O)Nc2ncnn21 (configuration not stated) active

Tell me the recorded outcome of this test for CCN1CCN(c2nc(Nc3cccc(OC)c3)nc(N)c2[N+](=O)[O-])CC1 . inactive

Please state the recorded outcome for this compound: Clc1ccccc1/C=N/Nc1cc(N2CCOCC2)ncn1 inactive

What outcome does the record of this test show for COc1ccc(C(=O)c2sc(NC(C)C)nc2N)cc1OC ? active

Would you mind telling me which call this test gave COc1ccc(-c2nnc(-c3ccccc3O)o2)cc1 ? inactive

Please let me know the test result on file for Cc1ccc2oc(=O)c3cnn(CC(=O)N4CCc5ccccc5C4)c3c2c1 . inactive

Record lookup: outcome of this test for COc1ccc(CCNc2ccc(S(=O)(=O)N3CCCC3)cc2[N+](=O)[O-])cc1 ? inactive

Please indicate how the test categorized CCN1CCN(CC(=O)Nc2nc3ccc(OC)cc3s2)CC1 . inactive

Assay outcome for CC(C)CNc1cc(N2CCCC2)ccc1[N+](=O)[O-] : what was it? inactive

Please state the recorded outcome for this compound: NS(=O)(=O)c1ccc(-c2ccc(/C=C3\SC(=O)NC3=O)o2)cc1 active

Hi, sorry to bother you, what did the test record for O=C(O)c1cn(-c2ccccc2)nc1-c1cccnc1 ? inactive

Any idea what this test logged for CCc1ccc(N2CC(C(=O)Nc3nccs3)CC2=O)cc1 (configuration not stated) ? inactive

Called result for COc1ccc(/C=C(/NC(=O)c2ccc([N+](=O)[O-])cc2)C(=O)NC(C)(C)C)cc1 inactive

Hi, sorry to bother you, what did the test record for Cc1ccc(S(=O)(=O)Nc2cc(Cl)c(O)c3ncccc23)cc1 ? inactive

Assay outcome for O=C(Nc1ncc([N+](=O)[O-])s1)C1CC(=O)N(c2ccc(F)cc2)C1 (configuration not stated) : what was it? active

For this compound, state the assay outcome: C/C(=N\NC(=O)c1nnn(-c2nonc2N)c1-c1cccs1)c1ccncc1 active

Each compound tested received a call. Report the one for CCOc1cc(C(c2c(C)[nH][nH]c2=O)c2c(C)[nH][nH]c2=O)ccc1O . inactive

Please state the recorded outcome for this compound: CCOC(=O)c1c(NC(=O)CN2C(=O)NC3(CCC(C)CC3)C2=O)sc(C)c1CC (configuration not stated) inactive

What classification did Nc1nc(N)nc(-c2cc([N+](=O)[O-])ccc2O)n1 end up with in this test? active

Short answer needed: outcome of this test for NS(=O)(=O)c1ccc(Nc2nc(-c3cccnc3)cs2)cc1 ? inactive

Test call for this compound, please: Cc1ccnc(NC(=O)CCC(=O)N(CC(=O)NCc2ccc(F)cc2)Cc2ccco2)c1 inactive
